B1: NELF-E aptamer (parent)
chain: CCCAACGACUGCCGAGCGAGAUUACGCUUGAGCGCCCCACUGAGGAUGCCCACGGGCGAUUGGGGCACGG

# Variants of: B1
# MEASUREMENT_DESCRIPTION: HiTS-RAP
# ASSAY_SETUP: with NELF-E (Drosophila)
MEASUREMENT_LABEL: pKd
Convention used: pKd is expressed as -log10 of the molar concentration.

Consider the following illustrative entries.
A8G C12U: 8.29
U10G C37U: 7.91

Could you now look at the following variant, please?
Which pKd is listed for A4G G63U ?
7.95
